From: patent US20210171652A1

targetEntity: T1, Band 3 / glycophorin A (Wright b, Wrb epitope) on human red blood cells (human, UniProt P02724 20-150)
T1 construct: whole, on cells; also called Band3/GPA; AE1
T1 sequence 1: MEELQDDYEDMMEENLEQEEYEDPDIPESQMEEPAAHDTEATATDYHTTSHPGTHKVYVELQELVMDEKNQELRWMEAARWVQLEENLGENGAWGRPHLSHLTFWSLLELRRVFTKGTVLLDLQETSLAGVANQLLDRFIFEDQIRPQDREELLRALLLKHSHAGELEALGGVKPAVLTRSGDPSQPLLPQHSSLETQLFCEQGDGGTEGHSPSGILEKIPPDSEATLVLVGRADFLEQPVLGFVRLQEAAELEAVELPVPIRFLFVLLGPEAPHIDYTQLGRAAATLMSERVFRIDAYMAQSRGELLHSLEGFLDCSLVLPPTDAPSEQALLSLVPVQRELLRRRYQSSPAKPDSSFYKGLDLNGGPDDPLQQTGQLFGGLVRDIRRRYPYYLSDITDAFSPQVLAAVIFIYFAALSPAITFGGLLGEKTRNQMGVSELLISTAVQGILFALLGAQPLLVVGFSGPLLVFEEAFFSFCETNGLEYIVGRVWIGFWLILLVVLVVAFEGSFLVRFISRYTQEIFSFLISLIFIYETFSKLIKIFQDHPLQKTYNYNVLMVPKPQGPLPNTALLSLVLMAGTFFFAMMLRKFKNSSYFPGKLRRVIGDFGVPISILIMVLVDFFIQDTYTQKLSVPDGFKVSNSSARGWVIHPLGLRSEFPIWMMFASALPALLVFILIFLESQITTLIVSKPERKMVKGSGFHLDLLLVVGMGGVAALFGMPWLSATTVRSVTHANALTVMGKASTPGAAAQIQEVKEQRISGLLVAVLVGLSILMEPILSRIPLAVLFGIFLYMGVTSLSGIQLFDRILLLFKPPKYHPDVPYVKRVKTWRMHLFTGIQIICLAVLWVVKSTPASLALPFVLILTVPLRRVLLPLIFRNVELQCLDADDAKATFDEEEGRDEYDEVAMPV
T1 sequence 2: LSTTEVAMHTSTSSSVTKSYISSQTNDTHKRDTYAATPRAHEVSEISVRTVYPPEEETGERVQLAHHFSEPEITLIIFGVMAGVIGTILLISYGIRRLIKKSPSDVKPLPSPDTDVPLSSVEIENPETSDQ
assayProcedure: Fab/phage binding assays on human RBCs incl. rare RBC types lacking conserved antigens
endpoint: binding result

# count of solved cases: 4
KP3-05 Fab/phage clone (anti-Band 3, Wrb) (Fab, V domains shown) VH: EVQLLESGPGLVKPSETLSLTCTVSGSSLSSAYGWNWIRQPPGKGLEWIGSIGGSRDNTNYNPSLKRRVTISKDTSKNQFSLKLKSVTAADTAVYYCAQRGAYGYSYFDYWGQGVLVAVSS VL: AAELTQSPATLSLSPGETATLSCRASQSVGSSLAWYQQKPGQAPKLLVHSAYFRATGIPDRFSGSGSRTDFTLTISSLEPEDVGVYHCHQYNDLLPLTFGGGTKVEIK: binds
KP3-18 Fab/phage clone (anti-Band 3, Wrb) (Fab, V domains shown) VH: EVQLLEWGPGLVKPSETLSLTCAVSGYSLSSAYGWNWIRQSPGKGLEWIGSIGGSRDNVNYNPSLKRRVTISKDTSTNHFSLRLSSVTAADTAVYYCVRRATYGNSYFDSWGQGVQVTVSS VL: ELTLTQSPATLSLSPGETATLSCRASQSVGSYLAWYQQKPGQAPKLLVHSAHFRATGIPDRFSGSGSRTDFTLTISSLEPEDVGVYHCQQYNDLLPLTFGGGTKVEIK: binds
KP3-15 Fab/phage clone (anti-Band 3, Wrb) (Fab, V domains shown) VH: EVQLLESGPGLVKPSETLSLTCTVSGSSLSSAYGWNWIRQPPGKGLEWIGSIGGNRDNTNYNPSLKRRVTISKDTSKNQFSLKLKSVTAADTAVYYCAQRGAYGYSYFDYWGQGVLVAVSS VL: AAELTQSPATLSVSPGEAATLSCRASQTVGRNLAWYQQKPGQAPKLLVHSAHFRATGIPDRFSGSGSGTDFTLTISSLEPEDAGIYHCQQYNDLLPLTFGGGTKVEIK: binds
KP2-19 Fab/phage clone (anti-Band 3, Wrb) (Fab, V domains shown) VH: EVQLLESGPGLVKPSETLSLTCAVSGGSINGGYDWTWIRQSPGKGLQWIGWIYGSRGTTNYNPSLRNRVTISIDTSRNQFSLRLSSLTAADTAVYYCAKRVGYGNSYFDSWGQGVLVTVSS VL: ELTLTQSPATLSLSPGERATLSCRASQSVSSRLAWYQQKPGQAPRLLIYDASSRVTGIPDRFSGSGSGTDFTLTISSLEPEDVGVYHCQQYNDLLPLTFGGGTKVEIK: binds

Next binder, binding result to be filled in.
Value of measured binding result for the entry KP3-08 Fab/phage clone (anti-Band 3, Wrb) (Fab, V domains shown) VH: EVQLLESGPGLVKPSETLSLTCTVSGSSLSSAYGWNWIRQPPGKGLEWIGSIGGSRDNTNYNPSLKRRVTISKDTSKNQFSLKLKSVTAADTAVYYCAQRGAYGYSYFDYWGQGVLVAVSS VL: ELTLTQSPATLSLSPGETATLSCRASQSLGGRLAWYQQKPGQAPRLLIYGASTRATGIPDRFSGSGSRTEFTLTIAGLEPEDVGVYHCQQYNDFLPLTFGGGTKVEIK : binds
